Task for the reader: assign each of the following compounds its reported Activity.
# Species: Rattus norvegicus
# EXPERIMENT: Inhibition of rat recombinant geranylgeranyltransferase type I expressed in Escherichia coli assessed as residual enzyme activity for geranylgeranylation of K-Ras4B at 50 uM incubated for 30 mins in presence of [3H]GGPP by scintillation counting assay relative to control
Please give a number only; it is taken to be in %.

Input: Give its Activity value. Item: COc1ccc([C@@H]2C[C@@H](SCC(C)C)[C@H](C(=O)O)CN2S(=O)(=O)c2ccccc2)cc1
Output: 70.2

Input: Quick check: Activity of Cc1ccc([C@@H]2C[C@@H](SCCC(C)C)[C@H](C(=O)O)CN2S(=O)(=O)c2ccccc2C)cc1 ?
Output: 75.2

Input: Bench note: what Activity did CCC[C@@H]1[C@@H](Sc2ccc(OC)cc2)[C@@H](C(=O)O)[C@H](c2ccc(Cl)c(Cl)c2)N1S(=O)(=O)c1ccc(C)cc1 show?
Output: 10.9

Input: So what does the record say about Activity for Cc1ccc(S(=O)(=O)N2[C@@H](c3ccc(Br)cc3)C(C(=O)O)=CC[C@H]2c2cccs2)cc1 ?
Output: 71.2

Input: Fill in the blank: the reported Activity of CCC[C@@H]1[C@@H](Sc2ccc(C)cc2)[C@@H](C(=O)O)[C@H](c2cccc(F)c2)N1S(=O)(=O)c1ccc(C)cc1 is ____.
Output: 14.7

Input: // lookup Activity for Cc1ccc([C@@H]2C[C@@H](SCCC(C)C)[C@H](C(=O)O)CN2S(C)(=O)=O)cc1
Output: 93.4

Input: Fill blank: measured Activity of the compound Cc1ccccc1S(=O)(=O)N1C[C@@H](C(=O)O)[C@H](Sc2ccc(Cl)cc2)C[C@H]1c1ccc(Cl)cc1 is ____.
Output: 83.5

Input: Which Activity is reported for this compound? CCCCCS[C@@H]1C[C@@H](c2ccc(C)cc2)N(S(=O)(=O)c2ccc(C)cc2)C[C@H]1C(=O)O
Output: 74.3

Input: Reported Activity, compound Cc1ccc(S(=O)(=O)N2[C@@H](c3cccc(Br)c3)C(C(=O)O)=CC[C@H]2c2ccccc2F)cc1 : ____
Output: 71.2

Input: Name the recorded Activity for CCOc1ccc([C@@H]2CC=C(C(=O)O)[C@H](c3ccc(C)cc3)N2S(=O)(=O)c2ccc(C)cc2)cc1 .
Output: 63.2

Input: Activity lookup needed for C=CCS[C@@H]1C[C@@H](c2ccc3c(c2)OCO3)N(S(=O)(=O)c2ccc(C)cc2)C[C@H]1C(=O)O , thanks.
Output: 76.4

Input: Can you share its Activity? I mean this compound: Cc1ccc([C@H]2C(C(=O)O)=CC[C@@H](c3ccc(Cl)cc3)N2S(=O)(=O)c2ccccc2C)cc1
Output: 61.6

Input: Any idea what its Activity is? The compound is COc1ccc([C@@H]2CC=C(C(C)=O)CN2S(=O)(=O)c2ccccc2)cc1
Output: 110

Input: # Activity lookup, item Cc1ccc([C@@H]2C[C@@H](Sc3ccccc3)[C@H](C(=O)O)CN2S(=O)(=O)c2ccc(Cl)cc2)cc1
Output: 87.1

Input: Suppose we examine the compound CCCS[C@@H]1C[C@@H](c2ccccc2)N(S(=O)(=O)c2ccc(C)cc2)C[C@H]1C(=O)O ; what Activity value has been reported?
Output: 75.7
